# tgt: HDAC3 (Homo sapiens, UniProt O15379)
# Construct: purchased Enzo Life Sciences
# Sequence (O15379 whole entry): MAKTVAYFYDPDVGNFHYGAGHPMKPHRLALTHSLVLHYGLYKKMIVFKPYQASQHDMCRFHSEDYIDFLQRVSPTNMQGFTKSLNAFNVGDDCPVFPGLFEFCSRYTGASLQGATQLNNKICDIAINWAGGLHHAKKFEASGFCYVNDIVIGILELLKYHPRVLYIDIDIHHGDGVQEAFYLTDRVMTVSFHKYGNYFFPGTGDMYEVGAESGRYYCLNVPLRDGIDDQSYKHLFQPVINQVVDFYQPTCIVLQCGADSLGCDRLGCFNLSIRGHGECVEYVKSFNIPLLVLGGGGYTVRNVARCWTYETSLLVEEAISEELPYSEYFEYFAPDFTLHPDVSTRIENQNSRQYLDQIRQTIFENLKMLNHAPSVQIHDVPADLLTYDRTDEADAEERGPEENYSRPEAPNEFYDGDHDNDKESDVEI
# Sequence (O75376 395-489 partner limits assumed): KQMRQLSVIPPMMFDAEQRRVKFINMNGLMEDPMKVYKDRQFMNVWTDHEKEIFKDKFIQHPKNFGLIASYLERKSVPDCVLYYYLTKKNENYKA
# procedure-text: HDAC Inhibition Screening Assay (FLUOR DE LYS Fluorimetric Drug Discovery Kit), HDAC3
# Format: biochemical
# setup-conditions: 2 μM compound
# Lookup of reported inhibition at 2 µM keyed by entry

O=C(/C=C/c1ccc2c(c1)CCC2NCCC(=O)Nc1cc(C(F)(F)F)cc(C(F)(F)F)c1)NO (stereo not drawn)    > 80%
Nc1cc(F)ccc1NC(=O)CCCCCCC(=O)Nc1ccc2c(c1)CCC(Cc1cc(C(F)(F)F)cc(C(F)(F)F)c1)C2=O (stereo not drawn)    < 50%
O=C(CCCCCCC(=O)Nc1ccc2c(c1)CCCC2=O)NO    > 80%
COc1ccc(S(=O)(=O)NC2CCc3cc(/C=C/C(=O)Nc4ccc(F)cc4N)ccc32)cc1 (stereo not drawn)    < 50%
O=C(/C=C/c1ccc(COc2ccc3c(c2)CCC(Cc2cc(C(F)(F)F)cc(C(F)(F)F)c2)C3=O)cc1)NO (stereo not drawn)    < 50%

Q: Can you share its inhibition at 2 µM? I mean this molecule: O=C(/C=C/c1ccc2c(c1)CCC2NS(=O)(=O)c1cc(C(F)(F)F)cc(C(F)(F)F)c1)NO (stereo not drawn)
Result: < 50%

Q: Can you share its inhibition at 2 µM? I mean this molecule: Nc1cc(F)ccc1NC(=O)CCCCC(=O)N1CCN(C(=O)c2ccc3c(c2)CC/C(=C\c2cc(C(F)(F)F)cc(C(F)(F)F)c2)C3=O)CC1
Result: < 50%

Q: Can you share its inhibition at 2 µM? I mean this molecule: O=C(CCCCCCC(=O)Nc1ccc2c(c1)CC/C(=C\c1cc(C(F)(F)F)cc(C(F)(F)F)c1)C2=O)NO
Result: < 50%

Q: Can you share its inhibition at 2 µM? I mean this molecule: O=C(/C=C/c1ccc2c(c1)CCCC2NC(=O)c1cc(C(F)(F)F)cc(C(F)(F)F)c1)NO (stereo not drawn)
Result: < 50%

Q: Can you share its inhibition at 2 µM? I mean this molecule: COc1ccc(N2C(=O)CN(C3CCc4cc(/C=C/C(=O)NO)ccc43)C2=O)cc1 (stereo not drawn)
Result: > 80%

Q: Can you share its inhibition at 2 µM? I mean this molecule: O=C(/C=C/c1ccc2c(c1)CCC2NCc1cc(C(F)(F)F)cc(C(F)(F)F)c1)NO (stereo not drawn)
Result: 50 to 80%

Q: Can you share its inhibition at 2 µM? I mean this molecule: O=C(CCCCCCC(=O)Nc1ccc2c(c1)CCC/C2=N\O)NO
Result: > 80%

Q: Can you share its inhibition at 2 µM? I mean this molecule: O=C(NO)c1ccc(COc2ccc3c(c2)CCC(Cc2cc(C(F)(F)F)cc(C(F)(F)F)c2)C3=O)cc1 (stereo not drawn)
Result: < 50%

Q: Can you share its inhibition at 2 µM? I mean this molecule: O=C(/C=C/c1ccc2c(c1)CCCC2NCCc1c[nH]c2ccccc12)NO (stereo not drawn)
Result: > 80%

Q: Can you share its inhibition at 2 µM? I mean this molecule: Nc1ccccc1NC(=O)c1ccc(COc2ccc3c(c2)CC/C(=C\c2cc(C(F)(F)F)cc(C(F)(F)F)c2)C3=O)cc1
Result: < 50%

Q: Can you share its inhibition at 2 µM? I mean this molecule: O=C(CCCCCNC(=O)c1ccc2c(c1)CC/C(=C\c1cc(C(F)(F)F)cc(C(F)(F)F)c1)C2=O)NO
Result: 50 to 80%

Q: Can you share its inhibition at 2 µM? I mean this molecule: COc1ccc2c(c1)CCC2NC(=O)CCCCCCC(=O)Nc1ccc(F)cc1N (stereo not drawn)
Result: < 50%

* * *

# tgt: HDAC1 (Homo sapiens, UniProt Q13547)
# Construct: purchased Enzo Life Sciences
# Sequence (Q13547 whole entry): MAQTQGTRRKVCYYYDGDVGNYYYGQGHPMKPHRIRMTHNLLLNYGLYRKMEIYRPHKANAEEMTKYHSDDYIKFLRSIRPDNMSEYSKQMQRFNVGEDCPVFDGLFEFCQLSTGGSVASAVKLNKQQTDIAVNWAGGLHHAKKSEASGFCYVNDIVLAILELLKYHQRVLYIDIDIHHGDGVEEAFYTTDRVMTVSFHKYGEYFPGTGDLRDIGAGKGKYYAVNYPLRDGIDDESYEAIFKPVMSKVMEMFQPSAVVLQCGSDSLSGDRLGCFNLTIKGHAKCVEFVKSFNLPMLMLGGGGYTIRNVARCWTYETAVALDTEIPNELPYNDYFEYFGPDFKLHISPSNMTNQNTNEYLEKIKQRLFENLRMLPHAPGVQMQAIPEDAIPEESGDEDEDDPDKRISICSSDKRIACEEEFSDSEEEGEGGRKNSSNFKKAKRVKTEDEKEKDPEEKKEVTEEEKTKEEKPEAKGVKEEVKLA
# procedure-text: HDAC Inhibition Screening Assay (FLUOR DE LYS Fluorimetric Drug Discovery Kit), HDAC1
# Type: biochemical
# setup-conditions: 2 μM compound
# Lookup of reported inhibition at 2 µM keyed by entry

These recorded examples may help you get a feel for the data.
Nc1cc(F)ccc1NC(=O)/C=C/c1ccc(COc2ccc3c(c2)CCCC3=O)cc1 [Compound 69]    < 50%
O=C(/C=C/c1ccc2c(c1)CCC2NCCc1cc(Cl)cc(Cl)c1)NO (stereo not drawn) [Compound 55]    > 80%
Nc1ccccc1NC(=O)c1ccc(COc2ccc3c(c2)CC/C(=C\c2cc(C(F)(F)F)cc(C(F)(F)F)c2)C3=O)cc1 [Compound 66]    < 50%
O=C(/C=C/c1ccc2c(c1)CCCC2NCCc1c[nH]c2ccccc12)NO (stereo not drawn) [Compound 61]    > 80%
O=C(/C=C/c1ccc2c(c1)CCC2NCCC(=O)Nc1cc(C(F)(F)F)cc(C(F)(F)F)c1)NO (stereo not drawn) [Compound 50]    > 80%
Cc1[nH]c2ccccc2c1CCNC1CCCc2cc(/C=C/C(=O)Nc3ccc(F)cc3N)ccc21 (stereo not drawn) [Compound 62]    50 to 80%
O=C(NO)c1ccc(COc2ccc3c(c2)CC(Cc2cc(C(F)(F)F)cc(C(F)(F)F)c2)C3=O)cc1 (stereo not drawn) [Compound 77]    < 50%
Nc1cc(F)ccc1NC(=O)/C=C/c1ccc2c(c1)CC/C(=C\c1cc(C(F)(F)F)cc(C(F)(F)F)c1)C2=O [Compound 6]    < 50%

Q: Can you share its inhibition at 2 µM? I mean this compound: Nc1cc(F)ccc1NC(=O)CCCCCNC(=O)c1ccc2c(c1)CC/C(=C\c1cc(C(F)(F)F)cc(C(F)(F)F)c1)C2=O [Compound 78]
Result: < 50%

Q: Can you share its inhibition at 2 µM? I mean this compound: Nc1cc(F)ccc1NC(=O)/C=C/c1ccc(COc2ccc3c(c2)CC/C(=C\c2cc(C(F)(F)F)cc(C(F)(F)F)c2)C3=O)cc1 [Compound 71]
Result: < 50%

Q: Can you share its inhibition at 2 µM? I mean this compound: Cc1ccc(S(=O)(=O)NC2CCc3cc(/C=C/C(=O)NO)ccc32)cc1 (stereo not drawn) [Compound 16]
Result: > 80%

Q: Can you share its inhibition at 2 µM? I mean this compound: COc1ccc2c(c1)CCCC2NC(=O)CCCCCCC(=O)Nc1ccc(F)cc1N (stereo not drawn) [Compound 47]
Result: < 50%

Q: Can you share its inhibition at 2 µM? I mean this compound: COc1ccc2c(c1)CCC2NC(=O)CCCCCCC(=O)Nc1ccc(F)cc1N (stereo not drawn) [Compound 43]
Result: < 50%

Q: Can you share its inhibition at 2 µM? I mean this compound: Nc1cc(F)ccc1NC(=O)CCCCC(=O)N1CCN(C(=O)c2ccc3c(c2)CC/C(=C\c2cc(C(F)(F)F)cc(C(F)(F)F)c2)C3=O)CC1 [Compound 82]
Result: < 50%

Q: Can you share its inhibition at 2 µM? I mean this compound: COc1ccc2c(c1)CCCC2NC(=O)CCCCCCC(=O)NO (stereo not drawn) [Compound 48]
Result: > 80%

* * *

# tgt: ATX (autotaxin) (Homo sapiens)
# Construct: purchased Cayman 10803
# procedure-text: Autotaxin Inhibition Screening Assay (choline release from LPC, LPC-CR)
# Assay type: biochemical
# setup-conditions: 4 μM compound
# Lookup of reported inhibition at 4 µM keyed by entry

O=C(CCCCCN(CC(=O)NC1CCc2ccccc21)CC(=O)NC1CCc2ccccc21)NO (stereo not shown)    < 50%
O=C(/C=C/c1ccc2c(c1)CCC2NC(=O)CCCCCCC(=O)NO)Nc1cc(Cl)cc(Cl)c1 (stereo not shown)    < 50%
O=C(CCCCC(=O)N1CCN(C(=O)c2ccc3c(c2)CC/C(=C\c2cc(C(F)(F)F)cc(C(F)(F)F)c2)C3=O)CC1)NO    > 80%
Nc1cc(F)ccc1NC(=O)CCCCCNC(=O)/C=C/c1ccc2c(c1)CCC2NC(=O)c1ccc(F)cc1 (stereo not shown)    < 50%
O=C(CCCCC(=O)Nc1ccc2c(c1)CC/C(=C\c1cc(C(F)(F)F)cc(C(F)(F)F)c1)C2=O)NO    > 80%
O=C(CCCCCCC(=O)NC1CCc2cc(Br)ccc21)NO (stereo not shown)    < 50%
O=C(/C=C/c1ccc2c(c1)CCCC2NCCc1c[nH]c2ccccc12)NO (stereo not shown)    < 50%
Nc1cc(F)ccc1NC(=O)CCCCCC(=O)Nc1ccc2c(c1)CC/C(=C\c1cc(C(F)(F)F)cc(C(F)(F)F)c1)C2=O    > 80%
CCN(CC)c1ccc(C(=O)NC2CCc3cc(/C=C/C(=O)NCCCCCC(=O)Nc4ccc(F)cc4N)ccc32)cc1 (stereo not shown)    < 50%
COc1ccc2c(c1)CCCC2NC(=O)CCCCCCC(=O)NO (stereo not shown)    < 50%

Q: Can you share its inhibition at 4 µM? I mean this compound: Nc1ccccc1NC(=O)c1ccc(COc2ccc3c(c2)CC/C(=C\c2cc(C(F)(F)F)cc(C(F)(F)F)c2)C3=O)cc1
Result: < 50%

Q: Can you share its inhibition at 4 µM? I mean this compound: Nc1cc(F)ccc1NC(=O)/C=C/c1ccc2c(c1)CCC2NC(=O)c1cc(C(F)(F)F)cc(C(F)(F)F)c1 (stereo not shown)
Result: < 50%
